Target Desc: 6xHis-tagged Plk4 kinase domain (KD) (Homo sapiens, UniProt O00444)
Construct: Plasmids encoding fragments of Plk4 kinase domain (2-275) with 6xHis-tag were cloned in pET system vectors; made in house; host or cells: E. coli BL21 gold (DE3)
Sequence (O00444 2-275): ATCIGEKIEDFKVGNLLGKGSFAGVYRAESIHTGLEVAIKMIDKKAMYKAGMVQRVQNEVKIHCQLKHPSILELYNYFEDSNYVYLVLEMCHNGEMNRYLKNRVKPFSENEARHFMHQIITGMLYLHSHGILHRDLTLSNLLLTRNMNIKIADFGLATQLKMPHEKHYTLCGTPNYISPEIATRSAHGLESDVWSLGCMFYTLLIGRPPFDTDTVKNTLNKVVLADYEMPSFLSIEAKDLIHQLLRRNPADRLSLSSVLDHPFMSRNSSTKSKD
Experiment Summary: Estimation of fluorescence increase (fluorogenicity) with Plk4 kinase domain versus BSA
Condition Info: mean of F(+Plk4KD)/F(+BSA) and standard deviation, N = 3; probe 3 µM, 1 h 37 °C
Readings of FPIk4/FBSA for the listed compounds
Answer field: number only, no words.

Ask: # query: FPIk4/FBSA of entry COc1c(Nc2cc(C)[nH]n2)nc(Sc2ccc(S(=O)(=O)Cc3cccc([N+](=O)[O-])c3F)cc2F)nc1N1CCC(CC(=O)NCCNC(=O)c2ccc(C(=O)O)c(C3=C4C=CC(=N)C=C4[Si](C)(C)c4cc(N)ccc43)c2)CC1 [2d]
Reply: 36

Ask: How about COc1c(Nc2cc(C)[nH]n2)nc(Sc2ccc(S(=O)(=O)Cc3cccc([N+](=O)[O-])c3F)cc2F)nc1N1CCN(CC(=O)NCCOCCNC(=O)c2ccc(C(=O)O)c(C3=C4C=CC(=N)C=C4[Si](C)(C)c4cc(N)ccc43)c2)CC1 [2a] ?
Reply: 10

Ask: How about COc1c(Nc2cc(C)[nH]n2)nc(Sc2ccc(S(=O)(=O)Cc3cccc([N+](=O)[O-])c3F)cc2F)nc1N1CCC(CC(=O)NCCCCNC(=O)c2ccc(C(=O)O)c(C3=C4C=CC(=N)C=C4[Si](C)(C)c4cc(N)ccc43)c2)CC1 [2c] ?
Reply: 14

Ask: How about COc1c(Nc2cc(C)[nH]n2)nc(Sc2ccc(S(=O)(=O)Cc3cccc([N+](=O)[O-])c3F)cc2F)nc1N1CCC(CC(=O)NCCOCCNC(=O)c2ccc(C(=O)O)c(C3=C4C=CC(=N)C=C4[Si](C)(C)c4cc(N)ccc43)c2)CC1 [2b] ?
Reply: 23

Ask: How about COc1c(Nc2cc(C)[nH]n2)nc(Sc2ccc(S(=O)(=O)Cc3cccc([N+](=O)[O-])c3F)cc2F)nc1N1CCN(CC(=O)NCCOCCNC(=O)c2ccc(C(=O)[O-])c(C3=C4C=CC(=[N+](C)C)C=C4[Si](C)(C)c4cc(N(C)C)ccc43)c2)CC1 [compound 1] ?
Reply: 4

====

Target Desc: Plk4 kinase domain (Homo sapiens)
Sequence (O00444 2-275): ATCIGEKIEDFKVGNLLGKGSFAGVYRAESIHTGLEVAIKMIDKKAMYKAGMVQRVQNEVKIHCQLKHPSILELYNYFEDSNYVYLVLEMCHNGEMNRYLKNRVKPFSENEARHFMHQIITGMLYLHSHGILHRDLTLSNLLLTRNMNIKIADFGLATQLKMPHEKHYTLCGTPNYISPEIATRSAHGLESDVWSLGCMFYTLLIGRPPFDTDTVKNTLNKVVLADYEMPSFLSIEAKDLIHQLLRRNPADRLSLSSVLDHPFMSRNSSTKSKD
Recorded Endpoint: pKd
# log scale: pKd equals minus log10 of the concentration in mol/L

COc1c(Nc2cc(C)[nH]n2)nc(Sc2ccc(S(=O)(=O)Cc3cccc([N+](=O)[O-])c3F)cc2F)nc1N1CCN(CC(=O)NCCOCCNC(=O)c2ccc(C(=O)O)c(C3=C4C=CC(=N)C=C4[Si](C)(C)c4cc(N)ccc43)c2)CC1 :: 7.59
COc1c(Nc2cc(C)[nH]n2)nc(Sc2ccc(S(=O)(=O)Cc3cccc([N+](=O)[O-])c3F)cc2F)nc1N1CCN(CC(=O)NCCOCCNC(=O)c2ccc(C(=O)[O-])c(C3=C4C=CC(=[N+](C)C)C=C4[Si](C)(C)c4cc(N(C)C)ccc43)c2)CC1 :: 7.32
COc1c(Nc2cc(C)[nH]n2)nc(Sc2ccc(S(=O)(=O)Cc3cccc([N+](=O)[O-])c3F)cc2F)nc1N1CCC(CC(=O)NCCNC(=O)c2ccc(C(=O)O)c(C3=C4C=CC(=N)C=C4[Si](C)(C)c4cc(N)ccc43)c2)CC1 :: 7.42
COc1c(Nc2cc(C)[nH]n2)nc(Sc2ccc(S(=O)(=O)Cc3cccc([N+](=O)[O-])c3F)cc2F)nc1N1CCC(CC(=O)NCCNC(=O)OC2CC/C=C/CCC2)CC1 (stereo not drawn) :: 8.10
COc1c(Nc2cc(C)[nH]n2)nc(Sc2ccc(S(=O)(=O)Cc3cccc([N+](=O)[O-])c3F)cc2F)nc1N1CCC(CC(=O)NCCOCCNC(=O)c2ccc(C(=O)O)c(C3=C4C=CC(=N)C=C4[Si](C)(C)c4cc(N)ccc43)c2)CC1 :: 7.85

Ask: # query: pKd of entry COc1c(Nc2cc(C)[nH]n2)nc(Sc2ccc(S(=O)(=O)Cc3cccc([N+](=O)[O-])c3F)cc2F)nc1N1CCC(CC(=O)NCCCCNC(=O)c2ccc(C(=O)O)c(C3=C4C=CC(=N)C=C4[Si](C)(C)c4cc(N)ccc43)c2)CC1
Reply: 7.64
